Entries and their inhibition
Protocol: M. tuberculosis growth inhibition, HTS (AID 1259417);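 note: bacteria grown with compound for 5 days at 37 °C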
Measurement Context: M. tuberculosis DsRed fluorescence growth inhibition; stronger effect = higher value; concentration not given here
About 760 (69%) of roughly 1,100 compounds were called active. The set was probably picked from earlier hits. Some of the results follow.

{"columns": ["Compound", "inhibition [%]"],
 "data": [
  ["CC(C)(C)c1cc(Cl)ccc1OCCn1ccnc1", 90.4],
  ["Nc1nnc(Sc2ncccc2[N+](=O)[O-])s1", 98.8],
  ["Oc1ccc(Br)cc1C1=NNC(c2ccc(F)cc2)C1 (centres undefined)", 99.5],
  ["O=[N+]([O-])c1ccc(/C=N/n2c(CO)nc3ccccc32)s1", 96.6]
]}

All values here come from PubChem BioAssay AID1259417.
